tested on: Methylobacter capsulatus Y (NRRL B-11,201); assay: Oxidation of n-alkanes to methyl ketones by resting cell suspension; format: cell-based; details: cell suspension grown on methane
recorded endpoint: Conversion Rates, n-alkane to methyl ketone (μmoles/hr/mg protein)
Note: unit μmoles/hr/mg protein is implicit; provide only the numeric part.

| chemical smiles | unit abbrev | value observed |
| --- | --- | --- |
| CCCC | μmoles/hr/mg protein | 1.1 |
| CCCCCC | μmoles/hr/mg protein | 0.07 |
| CCCCC | μmoles/hr/mg protein | 0.63 |

Now consider the entry below.
Given CCC , state its recorded Conversion Rates, n-alkane to methyl ketone.
1.6

* * *

// values below are reported Conversion Rate, n-alkane to secondary alcohol
system: Methylosinus trichosporium (OB3b, NRRL-B-11,196); test: Conversion of n-alkanes to secondary alcohols by cell suspensions; format: cell-based; conditions: growth substrate Methane
Note: unit μmoles/hr/^5 mg. protein is implicit; provide only the numeric part.

The following molecules have reported results that may help.
| molecule | value observed |
| --- | --- |
| CCCCCC [n-Hexane, n-hexane] | 0.01 |
| CCCCC [n-Pentane, n-pentane] | 0.06 |
| CCCC [n-Butane, n-butane] | 1.5 |

Now consider the entry below.
Given CCC [n-Propane, n-propane] , state its recorded Conversion Rate, n-alkane to secondary alcohol.
2.5

* * *

// values below are reported Conversion Rate, sec-alcohol to ketone
system: Hansenula polymorpha ATCC 26012; assay: Oxidation of sec-alcohols to ketones by cell suspensions of yeasts; type: cell-based; details: growth substrate Methylformate

The following molecules have reported results that may help.
| molecule | Conversion Rate, sec-alcohol to ketone |
| --- | --- |
| CCCC(C)O (stereo not drawn) | 1.3 μmoles/hr/mg of protein |
| CCC(C)O (stereo not drawn) | 5.2 μmoles/hr/mg of protein |

Now consider the entry below.
Given CC(C)O , state its recorded Conversion Rate, sec-alcohol to ketone.
5.6 μmoles/hr/mg of protein

* * *

// values below are reported % inhibition of SADH activity
Test system: secondary alcohol dehydrogenase (SADH)
Assay: Activity of purified secondary alcohol dehydrogenase (inhibition, substrate specificity, Km)
Type: biochemical, Pseudomonas sp. ATCC 21439
Settings: each inhibitor at a final concentration of 1 mM; spectrofluorometric
Description: Secondary alcohol dehydrogenase (SADH) from an obligate methanol utilizer, Pseudomonas sp. ATCC 21439 was purified as follows. […] 0.05 M sodium phosphate buffer, pH 7.0 with 0.5 mM dithiothretol (buffer A) and were disrupted sonically (5×1 min.). The crude extract was separated by centrifugation. The crude extract was heat-treated at 50° C. in a water bath for 10 minutes. The resulting precipitate was removed by centrifugation. […]

The following compounds have reported results that may help.
| compound | recorded endpoint | value observed |
| --- | --- | --- |
| c1cnc2c(c1)ccc1cccnc12 [1,10-phenanthroline, reference compound] | % inhibition of SADH activity | 95% |
| [Zn+2] [Zn^++, reference compound] | % inhibition of SADH activity | 0% |
| O=C(O)c1cc(SSc2ccc([N+](=O)[O-])c(C(=O)O)c2)ccc1[N+](=O)[O-] [5,5'-dithiobis(2-nitrobenzoic acid), reference compound] | % inhibition of SADH activity | 100% |
| [Fe+2] [ferrous, reference compound] | % inhibition of SADH activity | 50% |
| CCN1C(=O)C=CC1=O [N-ethylmalemide, N-ethylmaleimide, reference compound] | % inhibition of SADH activity | 6% |

Given c1ccc(-c2ccccn2)nc1 [α,α-bipyridyl, reference compound] , state its recorded % inhibition of SADH activity.
70%

Also need [Ni+2] [nickel, reference compound] , thanks.
20%

Also need O=C(O)c1cc[c]([Hg+])cc1.[OH-] [p-hydroxymercuribenzoate, reference compound] , thanks.
100%

Also need [Mn+2] [Mn^++, reference compound] , thanks.
0%
